# tested target: hS1PR5 (hEdg8) membrane protein (Homo sapiens, UniProt Q9H228)
# Sequence (Q9H228 whole entry): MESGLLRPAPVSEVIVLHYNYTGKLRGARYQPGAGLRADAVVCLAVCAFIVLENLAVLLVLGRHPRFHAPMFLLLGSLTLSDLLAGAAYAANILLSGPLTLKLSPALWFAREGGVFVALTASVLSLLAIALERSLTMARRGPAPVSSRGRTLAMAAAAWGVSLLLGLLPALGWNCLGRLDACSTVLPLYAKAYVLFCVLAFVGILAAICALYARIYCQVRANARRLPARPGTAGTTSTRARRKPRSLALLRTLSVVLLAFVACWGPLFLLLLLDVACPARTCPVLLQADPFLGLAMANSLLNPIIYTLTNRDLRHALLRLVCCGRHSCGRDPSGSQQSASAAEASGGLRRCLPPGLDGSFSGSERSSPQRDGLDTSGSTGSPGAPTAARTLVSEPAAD
# experimental details: hS1P5R GTPγS binding assay (Assay 4)
parameter measured: EC50

A selection of reference data follows.
> print(dat)
                                   molecule  parameter.measured          observed
1  CC(C)Nc1cc(-c2nnc(-c3cc(F)c(OC[C@H](N)[C@@H](C)O)cc3Cl)s2)ccn1 [Entry 57]                EC50    250 to 2800 nM
2  Cc1cc(-c2nnc(-c3cc(F)c(OC[C@H](N)[C@@H](C)O)cc3Cl)s2)cnc1NC(C)C [Entry 65]                EC50  2800 to 10000 nM
3  Cc1cc(-c2nnc(-c3cc(F)c(OC[C@H](N)[C@H](C)OP(=O)(O)O)cc3Cl)s2)ccc1OC(C)C [Entry 104]                EC50           ≤ 10 nM

From here, focus on the item given below.
Can you share its EC50? I mean this molecule: N#Cc1cc(-c2nnc(-c3cc(F)c(OC[C@H](N)CO)cc3Cl)s2)ccc1OC1COC1 [Entry 49] 50 to 250 nM
